The reported numbers originate from patent US7166634B2.

system: H. influenzae - ATCC 49247; test: MIC, broth microdilution (NCCLS M7-A5); format: cell-based; conditions: Table 4 (MIC); averages of 2 experiments, * single experiment; both values given when differing >2 fold
ATTRIBUTE MEASURED: H. inf. 49247

Study these solved cases before continuing.
COMPOUND	ATTRIBUTE MEASURED	RESULT
O=C(O)c1[nH]cc(-c2c[nH]c3ccc(Cl)cc23)c1-c1c[nH]c2ccc(Cl)cc12 [VII]	H. inf. 49247	>32*
COC(=O)c1[nH]c(C(=O)OC)c(-c2c[nH]c3ncccc23)c1-c1c[nH]c2ccc(Cl)cc12 [XIII]	H. inf. 49247	>32*
COC(=O)c1[nH]cc(-c2c[nH]c3ccc(Br)cc23)c1-c1c[nH]c2ccc(Br)cc12 [XVI]	H. inf. 49247	>32

Request: Looking for the measured H. inf. 49247 of COC(=O)c1[nH]cc(-c2c[nH]c3cc(Cl)c(F)cc23)c1-c1c[nH]c2ccc(F)cc12 [XXIV] , can you help?
Result: 16*
